Test system: SMN protein in SMA patient fibroblast cells (GM03813)
procedure.summary: SMN protein assay in cultured cells (SMN HTRF)
Assay type: cell-based
test.conditions: Homo sapiens, SMA Type 1 patient fibroblasts, 48 hours, 7-point concentration curve, 1.5 times SMN protein vs vehicle, read-out: EC1.5x SMN protein (EC1.5x concentration for SMN protein expression)
Excerpt: The term “EC1.5x concentration for SMN protein expression” (or “EC1.5x SMN protein”) is defined as that concentration of test compound that is effective in producing 1.5 times the amount of SMN protein in an SMA patient fibroblast cell compared to the amount produced from the vehicle control. The SMN HTRF (homogeneous time resolved fluorescence) assay is used to quantify the level of SMN protein in SMA patient fibroblast cells treated with test compounds. […]
metric: EC (1.5-fold) (µM)
Express your answer in µM, writing the number without its unit.

| record.smiles | target.or.test.system | EC (1.5-fold) (µM) |
| --- | --- | --- |
| Cc1cn2nc(-c3cc(=O)n4cc(N5CCN6CCC[C@@H]6C5)ccc4n3)ccc2n1 | SMN protein in SMA patient fibroblast cells (GM03813) | 0.0198 |
| Cc1cn2nc(-c3cc(=O)n4cc(N5CCCNCC5)ccc4n3)cc(C)c2n1 | SMN protein in SMA patient fibroblast cells (GM03813) | 0.0228 |

The record that follows has no EC (1.5-fold) shown yet.
### Prompt State, in one line, measured EC (1.5-fold) of `Cc1cn2nc(-c3cc(=O)n4cc(N5C[C@H](C)N[C@@H](C)C5)cc(C)c4n3)ccc2n1`
### Response 0.0031

Entry source: patent US11827646B2
